# procedureDetails: Half life in C57 mouse at 10 mg/kg, po measured for 20 mins by LC-MS/MS analysis
# Type: ADME, organism-based
# conditionDescription: in vivo
recordedEndpoint: half-life

// query # lookup: half-life of O=C(/C=C/c1ccc(O)cc1)NCCc1cn(Cc2cccc(Br)c2)c2ccccc12
// result 1.11 h

---

# procedureDetails: MRT (0 to t) in C57 mouse at 10 mg/kg, po measured for 20 mins by LC-MS/MS analysis
# Format: ADME, organism-based
# conditionDescription: in vivo
recordedEndpoint: MRT last at 20 min
Reply with the number and its unit after it.

// query # lookup: MRT last at 20 min of O=C(/C=C/c1ccc(O)cc1)NCCc1cn(Cc2cccc(Br)c2)c2ccccc12
// result 1.24 h

---

# procedureDetails: AUC (0 to t) in C57 mouse at 1 mg/kg, iv measured for 20 mins by LC-MS/MS analysis
# Assay type: ADME, organism-based
# Set-up: time 20 min, dose 1 mg/kg, route iv
# conditionDescription: in vivo
recordedEndpoint: AUC(0-t) at 20 min (ng·h/mL)
Field: numeric (ng·h/mL). Do not append units.

// query # lookup: AUC(0-t) at 20 min of O=C(/C=C/c1ccc(O)cc1)NCCc1cn(Cc2cccc(Br)c2)c2ccccc12
// result 860

---

# procedureDetails: Tmax in C57 mouse at 1 mg/kg, iv measured for 20 mins by LC-MS/MS analysis
# Type: ADME, organism-based
# conditionDescription: in vivo
recordedEndpoint: Tmax (min)
Field: numeric (min). Do not append units.

// query # lookup: Tmax of O=C(/C=C/c1ccc(O)cc1)NCCc1cn(Cc2cccc(Br)c2)c2ccccc12
// result 4.98

---

# procedureDetails: AUC (0 to infinity) in C57 mouse at 1 mg/kg, iv measured for 20 mins by LC-MS/MS analysis
# Assay type: ADME, organism-based
# Design: dose 1 mg/kg, time 20 min, route iv
# conditionDescription: in vivo
recordedEndpoint: AUC(0-inf) (ng·h/mL)
Field: numeric (ng·h/mL). Do not append units.

// query # lookup: AUC(0-inf) of O=C(/C=C/c1ccc(O)cc1)NCCc1cn(Cc2cccc(Br)c2)c2ccccc12
// result 863
